System: PPARg homodimer (NR concentration 180 nM)
Test: PBM binding z-score (relative to random genomic background probes); higher = stronger binding; sequences stand for … in GC…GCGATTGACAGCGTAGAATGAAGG
Note to self: values exactly at 2 are 1. So PBM binding z-score at or above 2 is 1, below is -1.

Study these solved cases before continuing.
{"sequence-chain": "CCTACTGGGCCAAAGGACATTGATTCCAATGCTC", "class-assignment": -1}
{"sequence-chain": "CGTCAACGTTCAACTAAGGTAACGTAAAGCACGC", "class-assignment": -1}
{"sequence-chain": "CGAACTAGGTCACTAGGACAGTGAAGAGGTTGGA", "class-assignment": -1}
{"sequence-chain": "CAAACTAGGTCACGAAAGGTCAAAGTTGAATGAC", "class-assignment": 1}
{"sequence-chain": "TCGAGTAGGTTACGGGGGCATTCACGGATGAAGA", "class-assignment": 1}
{"sequence-chain": "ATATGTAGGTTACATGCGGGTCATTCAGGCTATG", "class-assignment": -1}

Query block: # bool: PBM binding z-score of `TCGAGTAGATTACGGGGGCATTCAGGGATGAAGA` >= 2
Result block: -1

Query block: Quick check: does `TAGCCTAGGTCAGATCGGGCCAGTCTACGCTATA` have PBM binding z-score greater than or equal to 2?
Result block: -1

Query block: Does `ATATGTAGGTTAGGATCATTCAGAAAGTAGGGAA` have a reported PBM binding z-score of at least 2?
Result block: -1

Query block: Decide: PBM binding z-score of `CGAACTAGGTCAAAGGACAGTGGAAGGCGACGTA` >= 2?
Result block: -1

Query block: Given the entry `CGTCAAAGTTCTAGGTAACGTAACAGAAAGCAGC` , answer whether its PBM binding z-score meets or surpasses 2.
Result block: -1

Query block: Does the reported PBM binding z-score for `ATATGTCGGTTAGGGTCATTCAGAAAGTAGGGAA` fall at or above the 2 mark?
Result block: 1

----------
Tested on: PPARg DBDmut:RXRa IVT, anti-PPARg (DBD mutation: PPARg1 K132A/R137A, NR concentration 270 nM, RXRa partner concentration 90 nM)
Assay: PBM binding z-score (relative to random genomic background probes); higher = stronger binding; sequences stand for … in GC…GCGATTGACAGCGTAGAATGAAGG
# binning rule on PBM binding z-score: low interval (below -0.1), middle interval (-0.1 to below 1), high interval (1 or more)

Previously resolved entries follow.
{"sequence-chain": "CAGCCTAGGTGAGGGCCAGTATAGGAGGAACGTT", "class-assignment": "low interval"}
{"sequence-chain": "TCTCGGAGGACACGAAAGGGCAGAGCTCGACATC", "class-assignment": "low interval"}
{"sequence-chain": "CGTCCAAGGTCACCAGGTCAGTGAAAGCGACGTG", "class-assignment": "middle interval"}
{"sequence-chain": "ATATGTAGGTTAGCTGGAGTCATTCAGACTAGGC", "class-assignment": "high interval"}

Query block: Place this sequence in its band: `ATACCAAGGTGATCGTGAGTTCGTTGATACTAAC`
Result block: middle interval

Query block: Tag the class for `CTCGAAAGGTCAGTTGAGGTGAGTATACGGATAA`
Result block: middle interval

Query block: Exam item: assign `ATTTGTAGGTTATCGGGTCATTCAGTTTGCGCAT` to the correct category.
Result block: high interval

Query block: Entry `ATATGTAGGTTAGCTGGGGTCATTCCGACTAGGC` belongs to which category?
Result block: high interval

Query block: Where would `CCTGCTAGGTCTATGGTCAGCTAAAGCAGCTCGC` land among the classes by reported PBM binding z-score?
Result block: low interval

Query block: Please indicate the class for `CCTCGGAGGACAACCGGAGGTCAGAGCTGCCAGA` based on its PBM binding z-score.
Result block: low interval

Query block: Bin this entry: `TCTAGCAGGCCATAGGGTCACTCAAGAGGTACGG`
Result block: low interval

Query block: Please classify: `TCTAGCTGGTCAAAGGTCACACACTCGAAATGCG`
Result block: middle interval

Query block: Hello team, could you let me know which band the following sequence falls into: `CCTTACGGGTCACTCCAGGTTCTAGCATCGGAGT`
Result block: middle interval

Query block: Band for the recorded PBM binding z-score of `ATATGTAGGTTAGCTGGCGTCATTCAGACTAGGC` ?
Result block: high interval

Query block: Quick check: band for `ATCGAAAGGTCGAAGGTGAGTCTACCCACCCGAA`
Result block: middle interval

Query block: Category of `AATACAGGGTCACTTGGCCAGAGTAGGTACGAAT` :
Result block: high interval

Query block: Quick check: band for `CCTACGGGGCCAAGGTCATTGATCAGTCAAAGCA`
Result block: low interval

Query block: Class for `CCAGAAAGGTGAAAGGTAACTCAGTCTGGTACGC` ?
Result block: middle interval

Query block: Which band does `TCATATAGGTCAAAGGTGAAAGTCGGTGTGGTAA` fall in?
Result block: high interval

Query block: Class? Entry: `TCTGCTAGGTCAGGTGGTCAGCTAACGAGCTGCC`
Result block: low interval

Query block: Any idea which band `CGTGCAAGGTCAGAGAGGTCAGTGAATGCCGAGT` is in?
Result block: middle interval

Query block: Lab log: `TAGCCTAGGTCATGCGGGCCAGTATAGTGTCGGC` — assign PBM binding z-score category
Result block: low interval

Query block: Class? Entry: `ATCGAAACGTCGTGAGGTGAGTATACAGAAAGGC`
Result block: high interval

Query block: Which category fits this record: `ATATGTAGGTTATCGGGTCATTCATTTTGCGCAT`
Result block: high interval

Query block: Class? Entry: `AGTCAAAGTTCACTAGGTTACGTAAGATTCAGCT`
Result block: high interval

Query block: Which class does `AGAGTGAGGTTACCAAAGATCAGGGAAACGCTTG` fall in?
Result block: low interval
